- system_under_test: σ1-receptor (Cavia porcellus)
- Construct: the σ1-receptor preparation was prepared from guinea pig brain; from tissue; host or cells: guinea pig brain membrane homogenate
- Sequence (Q60492 whole entry): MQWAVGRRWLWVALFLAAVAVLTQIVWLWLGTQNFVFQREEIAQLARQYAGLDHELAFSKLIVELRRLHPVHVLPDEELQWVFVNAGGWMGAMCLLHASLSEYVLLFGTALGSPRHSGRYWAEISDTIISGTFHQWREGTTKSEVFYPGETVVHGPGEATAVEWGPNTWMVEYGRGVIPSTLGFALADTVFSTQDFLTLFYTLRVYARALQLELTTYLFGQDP
- assay_text: Sigma 1 receptor binding (Version B), [3H]-(+)-Pentazocin displacement
- Parameters: species or system guinea pig
Items are presented alongside their recorded pKi.
pKi here is simply -log10 of the concentration when that concentration is written in mol/L.

Solved entries:
molecule | pKi
COC1Cc2sccc2C2(CCN(CCC(C)C)CC2)O1 (centres unmarked) [Example 6] | 9.02
COc1ccc(CN2CCC3(CC2)OC(OC)Cc2sccc23)cc1 (centres unmarked) [Example 14] | 8.65
CCCCCCCCN1CCC2(CC1)OC(OC)Cc1sccc12 (centres unmarked) [Example 10] | 8.35
COC1Cc2sccc2C2(CCN(CCc3ccccc3)CC2)O1 (centres unmarked) [Example 4] | 8.23

Task item: Determine its reported pKi: COC1Cc2sccc2C2(CCN(CC=C(C)C)CC2)O1 (centres unmarked) [Example 7]
Reply: 9.02

###

- system_under_test: σ1-receptor (Cavia porcellus)
- Construct: the σ1-receptor preparation was prepared from guinea pig brain; from tissue; host or cells: guinea pig brain membrane homogenate
- assay_text: Sigma 1 receptor binding (Version B), [3H]-(+)-Pentazocin displacement
- Set-up: species or system guinea pig
Items are presented alongside their recorded Ki.

Solved entries:
compound | system_under_test | Ki
CCCCCN1CCC2(CC1)OC(OC)Cc1sccc12 (stereo not shown) | σ1-receptor (Cavia porcellus) | 1.64 nM
COC1Cc2sc(CN(C)C)cc2C2(CCN(Cc3ccccc3)CC2)O1 (stereo not shown) | σ1-receptor (Cavia porcellus) | 16.8 nM
COC1Cc2sccc2C2(CCN(Cc3ccc(F)cc3)CC2)O1 (stereo not shown) | σ1-receptor (Cavia porcellus) | 3.39 nM

// next entry
Task item: Determine its reported Ki: c1ccc(CN2CCC3(CC2)OCCc2sccc23)cc1
Reply: 0.31 nM

###

- system_under_test: σ1-receptor (Cavia porcellus)
- Construct: the σ1-receptor preparation was prepared from guinea pig brain; from tissue; host or cells: guinea pig brain membrane homogenate
- assay_text: Sigma-1 receptor binding (Version A), [3H]-(+)-pentazocine displacement
- Set-up: species or system guinea pig
experimental_readout: Ki (nM)
Expressed in nM, but write only the number.

compound | Ki, nM
CCCCCN1CCC2(CC1)OC(OC)Cc1sccc12 (centres unmarked) | 2.9
COC1Cc2sccc2C2(CCN(Cc3ccccc3)CC2)O1 (centres unmarked) | 2.4
COC1Cc2sccc2C2(CCN(CCC(C)C)CC2)O1 (centres unmarked) | 1.3
CCCCN1CCC2(CC1)OC(OC)Cc1sccc12 (centres unmarked) | 5.5

// next entry
Task item: Recall the reported Ki of COC1Cc2sccc2C2(CCN(Cc3ccc(F)cc3)CC2)O1 (centres unmarked) on σ1-receptor (Cavia porcellus) and write it down.
Reply: 2.3

###

- system_under_test: σ2-receptor (Rattus norvegicus, UniProt Q5U3Y7)
- Construct: the σ2-Receptorpreparation was prepared from rat liver; from tissue; host or cells: rat liver membrane homogenate
- Sequence (Q5U3Y7 1-176): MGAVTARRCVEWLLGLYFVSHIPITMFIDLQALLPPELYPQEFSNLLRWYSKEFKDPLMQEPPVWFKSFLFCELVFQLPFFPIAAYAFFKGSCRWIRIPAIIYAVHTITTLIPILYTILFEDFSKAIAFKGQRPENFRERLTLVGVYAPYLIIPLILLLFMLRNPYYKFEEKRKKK
- assay_text: Sigma 2 receptor binding (Version B), [3H]-Ditolylguanidin displacement
- measurement_setup: version B; rat liver preparation; [3H]-Ditolylguanidin 3 nM; σ1 sites masked with (+)-Pentazocin 500 nM; read-out: Binding σ2 Ki
Items are presented alongside their recorded pKi.
pKi here is simply -log10 of the concentration when that concentration is written in mol/L.

Solved entries:
compound | system_under_test | pKi
COC1Cc2sccc2C2(CCN(Cc3ccc(F)cc3)CC2)O1 (stereo not drawn) [Example 13] | σ2-receptor (Rattus norvegicus, UniProt Q5U3Y7) | 6.37
COC1Cc2sccc2C2(CCN(Cc3cccs3)CC2)O1 (stereo not drawn) [Example 15] | σ2-receptor (Rattus norvegicus, UniProt Q5U3Y7) | 5.98

// next entry
Task item: Determine its reported pKi: CC(=O)CC1Cc2sccc2C2(CCN(Cc3ccccc3)CC2)O1 (stereo not drawn) [Example 23]
Reply: 5.79
